Reference source: PubChem BioAssay AID588832

Entries and their inhibition values follow.
Test system: hedgehog, isoform A (Drosophila melanogaster)
assay_overview: Hh protein inhibition, biochemical readout – plate reader, single concentration, primary screen (AID 588832);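 note: 0% = neutral control wells and 100% = positive control wells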
condition_context: Biochemical plate reader assay, at 30.3 µM, active compounds read high
Among all 8,000 compounds or so, fewer than 10 were called active. A selection follows.

| molecule | inhibition [%] |
| --- | --- |
| Cc1ccc(NC(=S)NCc2ccc3[nH]c4c(c3c2)CCCC4)cc1 | 4.39 |
| Cc1cc2c(cc1S(=O)(=O)N1CCCCC1)OCC(=O)N2 | 10.9 |
| Cc1cc(NS(=O)(=O)c2ccc(NC(=O)c3cnc4scc(C)n4c3=O)cc2)nc(C)n1 | 6.2 |
| COCCn1c(SCC(=O)N2CCCc3ccccc32)nc2c(c1=O)SC(C)C2 (stereo unspecified) | 5.36 |
| O=C(NCc1ccco1)C(=O)NCC1OCCN1S(=O)(=O)c1ccccc1 (stereo unspecified) | 7.69 |
| CC(C)[C@H](NC(=O)[C@@H]1Cc2c([nH]c3ccccc23)C2c3ccccc3C(=O)N21)C(=O)N1CCC[C@H]1C(=O)O (stereo partly specified) | 5.17 |
| COc1ccccc1NS(=O)(=O)c1cc2c(cc1C)NC(=O)CO2 | 9.62 |
| O=C(NCCCN1CCOCC1)c1ccccc1N1C(=O)[C@@H]2Cc3c([nH]c4ccccc34)C(c3cccc(Cl)c3)N2C1=O (stereo partly specified) | 0 |
| COC(=O)C1=C(C)Nc2ccc(C)cc2S1 | 0 |
| O=C(C1COc2ccccc2O1)N1CCn2c(nc3ccccc32)C1 (stereo unspecified) | 4.17 |
| COc1ccc(-c2cc(=O)oc3cc(OC(C)C(=O)NCc4ccccn4)ccc23)cc1 (stereo unspecified) | 7.02 |
| CCc1ccccc1NC(=O)c1cc(S(=O)(=O)N2CCc3ccccc32)cn1C | 5.06 |
| COc1ccc(-n2c(Cc3cccn3C)nnc2SCC(=O)Nc2ccccc2OC)cc1 | 5 |
| CCC(NS(=O)(=O)c1ccc(C)cc1)C(=O)N1CCN(c2ccccn2)CC1 (stereo unspecified) | 20.8 |
| O=C(O)C(c1ccccc1)c1ccccc1 | 8.45 |
| Cc1ccc(S(=O)(=O)NCc2ccc3[nH]c(C)cc3c2)cc1 | 3.57 |
| O=C(O)c1cccc(N2C(=O)C3CC=C(Cl)CC3C2=O)c1 (stereo unspecified) | 14.9 |
| Cc1cc(C)n2c(SCC(=O)Nc3ccccc3)nnc2n1 | -12.9 |
| CCCCOC(=O)c1cc(=O)[nH]c(=O)[nH]1 | 5.12 |
| CC(=O)c1ccc(N2CCN(C(=O)c3ccc(NC4=NC5CS(=O)(=O)CC5S4)cc3)CC2)cc1 (stereo unspecified) | 3.39 |
| Cc1c(S(=O)(=O)Nc2cccc(Cl)c2)c(=O)n(C)c(=O)n1C | 0.909 |
